Cited source for all entries: patent US20190359653A1

Known S/N of a selection of binders
biological target: hFZD7 CRD-Fc (human, UniProt O75084 33-185); experiment: spot phage ELISA

• APSDDLEFWCHAMY [SEQ ID NO 46] = 57.2

Please report the recorded S/N for APSDDLASWCHVMY [SEQ ID NO 71] .
52

// next record VASDDLEAWCHVMY [SEQ ID NO 47]
57

// next record APADDLEAWCHVMY [SEQ ID NO 45]
58.1

// next record VPSADLETWCHVMY [SEQ ID NO 83]
47.3

// next record LPSDDLESWCHVMY [SEQ ID NO 53]
54.5

// next record APADDLAFWCHVMY [SEQ ID NO 51]
55.1

// next record AAADDLAAWCDVMY [SEQ ID NO 57]
54

// next record APADDLASWCHVMY [SEQ ID NO 61]
53.5

// next record APADDLAFWCDVMY [SEQ ID NO 90]
33.8

// next record VPADDLASWCDVMY [SEQ ID NO 78]
49.2

// next record LASDDLEFWCHVMY [SEQ ID NO 81]
48.1

// next record VASDDLASWCHVVY [SEQ ID NO 86]
44.8

// next record LPADDLAAWCHVMY [SEQ ID NO 84]
46.7

// next record APADDLESWCHVMY [SEQ ID NO 96]
53.9

// next record APSDDLEAWCDVMY [SEQ ID NO 75]
50.2
